- measurement_protocol: Viability qHTS for inhibitors of the SERCaMP assay screened against the NCATS CANVASS Library (AID 1347400); note: nearly all actives have a fitted effect of over 70% in size
- recorded_conditions: SH-SY5Y SERCaMP cells viability, CellTiter-Glo, 48 h; series mostly up to 92.2 µM
Records with an inconclusive call do not appear. Active and inactive are the calls of the source. Calls come from the whole dose curve; as a rule, active = well fitted cell-killing curve with a large enough effect; inconclusive = small, poorly fitted or top-dose-only effect; inactive = flat fitted curve, though single readings scatter.
Respond using exactly one of the listed classes: active, inactive

Kindly provide the recorded test outcome for the following compound: `CCC(=O)CCCCC[C@@H]1NC(=O)[C@H]2CCCCN2C(=O)[C@H]([C@@H](C)CC)NC(=O)[C@H](Cc2cn(OC)c3ccccc23)NC1=O`
active

Do the same for `NCCc1ccccc1` please
inactive

Thanks! And `CC(=O)N[C@H]1CCN2CCC[C@H]12` ?
inactive

Then this compound: `CO[C@@H](/C=C/CC/C=C/C(=O)O)[C@@H](O)[C@H](C)[C@@H](O)/C(C)=C/[C@H](C)C(=O)CCCC1CC(=O)NC(=O)C1`
inactive

Can you handle CC1=CC2CC[C@@H]3[C@@H](C)C[C@H](C)[C@@H](C1)N23 (some centres undefined) next?
inactive

Moving on to the next compound: COC(=O)C1=C2Nc3ccccc3[C@@]23CCN2CC(C(C)=O)C1C[C@H]23 (some centres undefined)
inactive

# repeat for `C[C@@H]1CC[C@@H](c2ccoc2)N2C[C@@]3(CC[C@@H]12)CS[C@@]1(CC[C@H]2[C@H](C)CC[C@@H](c4ccoc4)N2[C@@H]1O)C3`
active

Let us now turn to C[C@]12CC(O)C3[C@@H](CCC4C[C@@H](O)CC[C@@]43CO)[C@@]1(O)CCC2C1=CC(=O)OC1 (some centres undefined)
inactive

CCCCC[C@@H]1OC(=O)[C@@H](C)N(C)C(=O)[C@H](CCCCC)OC(=O)C(C)N(C)C(=O)[C@H](CCCCC)OC(=O)[C@@H](C)N(C)C(=O)[C@H](CCCCC)OC(=O)C(C)N(C)C1=O (some centres undefined) ?
active

Moving on to the next compound: CCN1C[C@]2(C)CC[C@H](O)[C@]34C1C(C[C@H]23)[C@@]12CC[C@H](CC14)[C@](O)(COC(=O)c1ccc(OC)c(OC)c1)[C@H]2O (some centres undefined)
inactive

// repeat for `CNCCc1ccccc1` and report
inactive

Entry `CC1=CC(=O)C2=C(C)C[C@H](O)[C@@H]3[C@H](OC(=O)[C@@H]3C)[C@@H]12` please
inactive

Then what about the compound CC[N@@+]1([O-])C[C@]2(C)CC[C@@H](O)[C@@]34C5C[C@H]6CC[C@@]5(C(C[C@H]23)C41)[C@H](O)[C@@]6(O)CO (some centres undefined) ?
inactive

Also, `CNCCc1ccc(O)cc1` please.
inactive

---

- target_of_assay: Alpha-galactosidase (Coffea arabica) (UniProt Q42656)
- Sequence (Q42656 whole entry, looked up): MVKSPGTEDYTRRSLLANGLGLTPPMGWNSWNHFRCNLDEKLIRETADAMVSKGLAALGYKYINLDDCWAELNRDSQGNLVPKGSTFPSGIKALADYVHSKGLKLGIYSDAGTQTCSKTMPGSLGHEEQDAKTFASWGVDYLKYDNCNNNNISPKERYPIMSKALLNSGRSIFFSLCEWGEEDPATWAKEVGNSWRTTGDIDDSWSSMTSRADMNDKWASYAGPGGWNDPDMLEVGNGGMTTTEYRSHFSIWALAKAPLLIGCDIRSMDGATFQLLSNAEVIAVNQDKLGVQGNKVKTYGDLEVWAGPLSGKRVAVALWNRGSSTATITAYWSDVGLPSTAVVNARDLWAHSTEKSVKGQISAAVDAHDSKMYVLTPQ
- measurement_protocol: Counterscreen for Glucocerebrosidase Inhibitors: qHTS Assay for Coffee Bean alpha-Galactosidase at pH 4.5 (AID 957)
- recorded_conditions: purified coffee bean alpha-galactosidase, fluorogenic substrate; series mostly up to 76.9 µM
Calls of active or inactive are those of the source. Calls follow the shape of the dose curve; as a rule, active = well fitted curve in the direction sought with a large enough effect; inconclusive = small, poorly fitted or top-dose-only effect, or another doubt; inactive = no such curve, though single readings can be large or run the other way.
outcome_measure: outcome

Below are worked cases with known answers.
1) CN(C)S(=O)(=O)c1ccc2c(c1)/C(=C/c1cc3c([nH]1)CCCC3)C(=O)N2 : inactive
2) CCCn1c(=O)c2[nH]c(-c3ccc(OCC(=O)NCCN)cc3)nc2n(CCC)c1=O : inactive
3) CCCCCCCCCCCCCCSCC(=O)O : inactive
4) O=C(O)C1CCNCC1 : inactive
5) CCCCCCCCCCC/C=C\C(C)(C)/C=C\CCCC(=O)O : inactive

# returns recorded outcome (system: Alpha-galactosidase (Coffea arabica) (UniProt Q42656)) for `COc1ccccc1N1CCN(CCN(C(=O)C2CCCCC2)c2ccccn2)CC1`
inactive

Also `CC(C)Cn1c(=O)n(C)c(=O)c2[nH]cnc21` ?
inactive

Also `COc1ccccc1N1CCN(CCCCN2C(=O)c3ccccc3C2=O)CC1` ?
inactive

Cool, now `C[C@H](N)Cc1c[nH]c2ccc(O)cc12`
inactive
